- Tested on: Mycobacterium tuberculosis Erdman (autoluminescent)
- Assay method text: Einf, fitted maximum growth inhibition of combination (fraction); higher = stronger maximal inhibition
- Assay conditions: in vitro model: standard 7H9 glycerol; time point: constant = terminal
Experimental readout: Einf
Numbers only.

Worked set:
compound="CC(C)/N=c1\\cc2n(-c3ccc(Cl)cc3)c3ccccc3nc-2cc1Nc1ccc(Cl)cc1 [clofazimine] + CC(=O)NC[C@H]1CN(c2ccc(N3CCOCC3)c(F)c2)C(=O)O1" experimental_readout=Einf recorded_value=0.979
compound="CC[C@@H](CO)NCCN[C@@H](CC)CO [ethambutol] + CO[C@H]1/C=C/O[C@@]2(C)Oc3c(C)c(O)c4c(O)c(c(/C=N/N5CCN(C)CC5)c(O)c4c3C2=O)NC(=O)/C(C)=C\\C=C\\[C@H](C)[C@H](O)[C@@H](C)[C@@H](O)[C@@H](C)[C@H](OC(C)=O)[C@@H]1C [rifampicin]" experimental_readout=Einf recorded_value=0.894
compound="O=[N+]([O-])c1cn2c(n1)OC[C@@H](OCc1ccc(OC(F)(F)F)cc1)C2 [pretomanid] + NC(=O)c1cnccn1 [pyrazinamide]" experimental_readout=Einf recorded_value=0.915
compound="COc1nc2ccc(Br)cc2cc1[C@@H](c1ccccc1)[C@@](O)(CCN(C)C)c1cccc2ccccc12 [bedaquiline] + NNC(=O)c1ccncc1 [isoniazid]" experimental_readout=Einf recorded_value=0.966
compound="NC(=O)c1cnccn1 [pyrazinamide] + CO[C@H]1/C=C/O[C@@]2(C)Oc3c(C)c(O)c4c(O)c(c(/C=N/N5CCN(C6CCCC6)CC5)c(O)c4c3C2=O)NC(=O)/C(C)=C\\C=C\\[C@H](C)[C@H](O)[C@@H](C)[C@@H](O)[C@@H](C)[C@H](OC(C)=O)[C@@H]1C" experimental_readout=Einf recorded_value=0.866

Please look at the items below and tell me Einf for each one, in order.
1. COc1nc2ccc(Br)cc2cc1[C@@H](c1ccccc1)[C@@](O)(CCN(C)C)c1cccc2ccccc12 [bedaquiline] + NC(=O)c1cnccn1 [pyrazinamide]
2. CC[C@@H](CO)NCCN[C@@H](CC)CO [ethambutol] + COc1c(N2C[C@@H]3CCCN[C@@H]3C2)c(F)cc2c(=O)c(C(=O)O)cn(C3CC3)c12 [moxifloxacin]

Reply |
[0.943, 0.975]

###

- System: Mycobacterium tuberculosis Erdman (autoluminescent)
- Assay method text: total FIC90 (Loewe) at 90% inhibition, three-drug combination (log2); higher = more antagonistic
- Assay conditions: in vitro model: dormancy (butyrate + nitrate, low O2); time point: terminal (~4-5 doublings, model-specific)
Label 1 when total FIC90 is at or above 0.2; otherwise label -1.

Example cases with answers are listed next.
compound="CC[C@@H](CO)NCCN[C@@H](CC)CO [ethambutol] + CO[C@H]1/C=C/O[C@@]2(C)Oc3c(C)c(O)c4c(O)c(c(/C=N/N5CCN(C6CCCC6)CC5)c(O)c4c3C2=O)NC(=O)/C(C)=C\\C=C\\[C@H](C)[C@H](O)[C@@H](C)[C@@H](O)[C@@H](C)[C@H](OC(C)=O)[C@@H]1C [rifapentine] + CO[C@H]1/C=C/O[C@@]2(C)Oc3c(C)c(O)c4c(O)c(c(/C=N/N5CCN(C)CC5)c(O)c4c3C2=O)NC(=O)/C(C)=C\\C=C\\[C@H](C)[C@H](O)[C@@H](C)[C@@H](O)[C@@H](C)[C@H](OC(C)=O)[C@@H]1C [rifampicin]" assigned_category=-1
compound="COc1nc2ccc(Br)cc2cc1[C@@H](c1ccccc1)[C@@](O)(CCN(C)C)c1cccc2ccccc12 [bedaquiline] + CC(=O)NC[C@H]1CN(c2ccc(N3CCOCC3)c(F)c2)C(=O)O1 [linezolid] + CO[C@H]1/C=C/O[C@@]2(C)Oc3c(C)c(O)c4c(O)c(c(/C=N/N5CCN(C6CCCC6)CC5)c(O)c4c3C2=O)NC(=O)/C(C)=C\\C=C\\[C@H](C)[C@H](O)[C@@H](C)[C@@H](O)[C@@H](C)[C@H](OC(C)=O)[C@@H]1C [rifapentine]" assigned_category=1
compound="CC[C@@H](CO)NCCN[C@@H](CC)CO [ethambutol] + CC(=O)NC[C@H]1CN(c2ccc(N3CCOCC3)c(F)c2)C(=O)O1 [linezolid] + CO[C@H]1/C=C/O[C@@]2(C)Oc3c(C)c(O)c4c(O)c(c(/C=N/N5CCN(C)CC5)c(O)c4c3C2=O)NC(=O)/C(C)=C\\C=C\\[C@H](C)[C@H](O)[C@@H](C)[C@@H](O)[C@@H](C)[C@H](OC(C)=O)[C@@H]1C [rifampicin]" assigned_category=-1

Ask | Given the entry COc1nc2ccc(Br)cc2cc1[C@@H](c1ccccc1)[C@@](O)(CCN(C)C)c1cccc2ccccc12 [bedaquiline] + CC[C@@H](CO)NCCN[C@@H](CC)CO [ethambutol] + CO[C@H]1/C=C/O[C@@]2(C)Oc3c(C)c(O)c4c(O)c(c(/C=N/N5CCN(C6CCCC6)CC5)c(O)c4c3C2=O)NC(=O)/C(C)=C\C=C\[C@H](C)[C@H](O)[C@@H](C)[C@@H](O)[C@@H](C)[C@H](OC(C)=O)[C@@H]1C [rifapentine] , answer whether its total FIC90 meets or surpasses 0.2.
Reply | 1

###

- Test system: Mycobacterium tuberculosis Erdman (autoluminescent)
- Assay method text: total FIC90 (Loewe) at 90% inhibition, three-drug combination (log2); higher = more antagonistic
- Assay conditions: in vitro model: cholesterol-high 0.2 mM; time point: constant (~7 days, model-specific)
Experimental readout: total FIC90
Answers are plain numbers.

Ask | Looking for the measured total FIC90 of COc1nc2ccc(Br)cc2cc1[C@@H](c1ccccc1)[C@@](O)(CCN(C)C)c1cccc2ccccc12 [bedaquiline] + O=[N+]([O-])c1cn2c(n1)OC[C@@H](OCc1ccc(OC(F)(F)F)cc1)C2 [pretomanid] + CO[C@H]1/C=C/O[C@@]2(C)Oc3c(C)c(O)c4c(O)c(c(/C=N/N5CCN(C)CC5)c(O)c4c3C2=O)NC(=O)/C(C)=C\C=C\[C@H](C)[C@H](O)[C@@H](C)[C@@H](O)[C@@H](C)[C@H](OC(C)=O)[C@@H]1C [rifampicin] , can you help?
Reply | 1.66

###

I'd appreciate it if you could supply AUC25 values for the items below.
- Tested on: Mycobacterium tuberculosis Erdman (autoluminescent)
- Assay method text: AUC25, normalised area under dose response up to IC25 (fraction (0-1)); higher = more potent at low dose
- Assay conditions: in vitro model: acidic pH 5.7; time point: terminal (~4-5 doublings, model-specific)
Answers are plain numbers.

Worked set:
compound="CC[C@@H](CO)NCCN[C@@H](CC)CO [ethambutol] + CC(=O)NC[C@H]1CN(c2ccc(N3CCOCC3)c(F)c2)C(=O)O1 [linezolid]" assayed_system="Mycobacterium tuberculosis Erdman (autoluminescent)" recorded_value=0.0783
compound="COc1nc2ccc(Br)cc2cc1[C@@H](c1ccccc1)[C@@](O)(CCN(C)C)c1cccc2ccccc12 [bedaquiline] + CO[C@H]1/C=C/O[C@@]2(C)Oc3c(C)c(O)c4c(O)c(c(/C=N/N5CCN(C)CC5)c(O)c4c3C2=O)NC(=O)/C(C)=C\\C=C\\[C@H](C)[C@H](O)[C@@H](C)[C@@H](O)[C@@H](C)[C@H](OC(C)=O)[C@@H]1C [rifampicin]" assayed_system="Mycobacterium tuberculosis Erdman (autoluminescent)" recorded_value=0.0796
compound="CC[C@@H](CO)NCCN[C@@H](CC)CO [ethambutol] + NC(=O)c1cnccn1 [pyrazinamide]" assayed_system="Mycobacterium tuberculosis Erdman (autoluminescent)" recorded_value=0.0625

# context switch: different compound, same AUC25
Ask | Looking for the measured AUC25 of CC(C)/N=c1\cc2n(-c3ccc(Cl)cc3)c3ccccc3nc-2cc1Nc1ccc(Cl)cc1 [clofazimine] + CO[C@H]1/C=C/O[C@@]2(C)Oc3c(C)c(O)c4c(O)c(c(/C=N/N5CCN(C)CC5)c(O)c4c3C2=O)NC(=O)/C(C)=C\C=C\[C@H](C)[C@H](O)[C@@H](C)[C@@H](O)[C@@H](C)[C@H](OC(C)=O)[C@@H]1C [rifampicin] , can you help?
Reply | 0.0797

###

- Tested on: Mycobacterium tuberculosis Erdman (autoluminescent)
- Assay method text: GRinf, maximum normalised growth rate inhibition (three-drug combination) (unitless (-1 to 1)); higher = less effect (negative = killing)
- Assay conditions: in vitro model: acidic pH 5.7; time point: constant (~7 days, model-specific)
Label Y when GRinf is at or above -0.2; otherwise label N.

Ask | Given the entry CC(C)/N=c1\cc2n(-c3ccc(Cl)cc3)c3ccccc3nc-2cc1Nc1ccc(Cl)cc1 [clofazimine] + CC(=O)NC[C@H]1CN(c2ccc(N3CCOCC3)c(F)c2)C(=O)O1 [linezolid] + CO[C@H]1/C=C/O[C@@]2(C)Oc3c(C)c(O)c4c(O)c(c(/C=N/N5CCN(C)CC5)c(O)c4c3C2=O)NC(=O)/C(C)=C\C=C\[C@H](C)[C@H](O)[C@@H](C)[C@@H](O)[C@@H](C)[C@H](OC(C)=O)[C@@H]1C [rifampicin] , answer whether its GRinf meets or surpasses -0.2.
Reply | Y
